Values were extracted from patent US20240067632A1.

Target: WEE1 (Homo sapiens, UniProt P30291+Q96SW2)
Construct: C-terminal ePL-tagged (DiscoverX, Fremont, CA) full-length WEE1 expression construct; expressed in transfected cells; host or cells: LentiX-HEK293T (Invitrogen), lentiviral transduction; co-expressing GSPT1-GN (G576N, lacking the first 158 amino acids)
Assay: WEE1-ePL degradation assay (LentiX-WEE1-ePL-GSPT1-ND cells, InCELL Hunter luminescence, 4 h)
Format: cell-based
Conditions: 293T-LentiX WEE1-ePL cells, read-out: 293T-LentiX WEE1-ePL Degradation 4 hr (EC50)
testReadout: DC50 (nM)

[I] COCc1cnc2ccc(CN3CC[C@H](Oc4ccc5c(c4)CN(C4CCC(=O)NC4=O)C5=O)C3)cc2c1 (stereo partly drawn)
[II] O=C1CCC(N2Cc3cc(O[C@H]4CCN(Cc5ccc6nc(C7CCOCC7)ccc6c5)C4)ccc3C2=O)C(=O)N1 (stereo partly drawn)
IN: Recorded DC50 values differ for I and II ; which one is higher? Refer to your chosen entry by its label in the reply.
OUT: I
(I: 4.28 nM, II: 2.83 nM)

[I] CO[C@H]1C[C@@H](c2ccc3cc(CN4CC[C@H](Oc5ccc6c(c5)CN(C5CCC(=O)NC5=O)C6=O)C4)ccc3n2)C1 (stereo partly drawn) [drawing 581]
[II] O=C1CCC(N2Cc3cc(O[C@H]4CCN(Cc5ccc6ccncc6c5)C4)ccc3C2=O)C(=O)N1 (stereo partly drawn)
IN: // which entry reports the smaller DC50, I or II ? Refer to your chosen entry by its label in the reply.
OUT: I
(I: 5.35 nM, II: 21 nM)
